# tested_system: T1, cynomolgus TROP2-his protein (cynomolgus monkey, UniProt P09758 27-272 (human entry), limits assumed)
# T1 construct: no cleavage site is stated; also called Cynomolgus monkey TROP2-his protein; monkey TROP2
# T1 chain: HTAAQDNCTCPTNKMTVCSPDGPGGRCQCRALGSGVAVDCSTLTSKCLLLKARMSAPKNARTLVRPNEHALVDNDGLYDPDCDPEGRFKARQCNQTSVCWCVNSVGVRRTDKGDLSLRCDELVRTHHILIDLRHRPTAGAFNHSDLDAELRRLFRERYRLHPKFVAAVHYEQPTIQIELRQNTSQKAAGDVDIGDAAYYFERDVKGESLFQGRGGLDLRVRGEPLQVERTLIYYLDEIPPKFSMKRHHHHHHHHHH
# protocol_description: indirect ELISA, cynomolgus TROP2-his coated at 2 ug/mL, OD(450-630)
property_name: pEC50
Note on pEC50: it is the negative log10 of concentration, concentration in mol/L.

[ask] Given the binder benchmark (in house prepared sacituzumab) (antibody, human IgG1, kappa, V domains shown, also called BM; BM1) VH: SVQLQQSGSELKKPGASVKVSCKASGYTFTNYGMNWVKQAPGQGLKWMGWINTYTGEPTYTDDFKGRFAFSLDTSVSTAYLQISSLKADDTAVYFCARGGFGSSYWYFDVWGQGSLVTVSS VL: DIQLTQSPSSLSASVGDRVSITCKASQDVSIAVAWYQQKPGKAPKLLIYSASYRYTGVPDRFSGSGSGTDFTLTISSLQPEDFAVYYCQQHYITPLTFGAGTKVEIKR , what is its reported pEC50?
[reply] 9.87
